- testedOn: LNCaP cells expressing human 17βHSD type 5 (Homo sapiens)
- Sequence (P42330 1-323): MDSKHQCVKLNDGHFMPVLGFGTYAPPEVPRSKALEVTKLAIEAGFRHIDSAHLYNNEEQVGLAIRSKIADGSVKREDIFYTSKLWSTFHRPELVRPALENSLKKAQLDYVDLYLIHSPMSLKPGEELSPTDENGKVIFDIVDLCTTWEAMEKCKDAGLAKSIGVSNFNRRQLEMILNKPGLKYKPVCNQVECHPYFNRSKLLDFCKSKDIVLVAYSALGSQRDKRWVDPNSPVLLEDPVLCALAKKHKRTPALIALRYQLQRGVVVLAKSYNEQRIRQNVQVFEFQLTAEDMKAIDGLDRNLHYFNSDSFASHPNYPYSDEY
- testSummary: Cell growth capability using LNCaP cells expressing human 17βHSD type 5 (CellTiter-Glo)
- Format: cell-based
- runConditions: androstenedione 10 nM, culturing for 7 days; read-out: LNCaP-17β5 IC50 (cell growth inhibitory activity)
- Protocol: LNCaP cells of the human prostate cancer-derived cell line were transformed with a plasmid containing the clone selected in section 1 above and then a cell line showing stable expression was obtained. 9000 cells/well of the transformed cells obtained in section 4 above were seeded in a 96-well plate and cultured overnight. […] After the culturing, number of the cells was counted using a CellTiter-Glo (registered trademark) Luminescent Cell Viability Assay (Promega). […]
measure: GI50 (nM)

The cases that follow already have their GI50 on record.
> print(dat)
                                     smiles  unitofmeasurement  numericreadout
1  CC(C)(O)CC1CCN(C(=O)c2cc3cc(O)ccc3[nH]2)CC1                 nM              18
2  CC(C)(O)CC1CCN(C(=O)c2cc3cc(Cl)ccc3[nH]2)CC1                 nM             8.9

1: CC(C)(O)CC1CCN(C(=O)c2cc3cc([N+](=O)[O-])ccc3[nH]2)CC1
2: Cc1ccc2[nH]c(C(=O)N3CCC(CC(C)(C)O)CC3)c(C)c2c1
### Prompt Sorting by GI50 in descending order, would 1 or 2 appear first? Which one? Tell me its label.
### Response 1
(1: 29 nM, 2: 20 nM)

Ref: patent US8513422B2
